- System: SK-MEL-28 melanoma
- assay_method_text: NCI tumour cell line growth inhibition, 48 h
Listed here are molecules together with their documented TGI.

Solved cases (5 shown):
CCOC(=O)C(=Cc1ccc(C(=O)OC)cc1)C(=O)OCC : 3.34 µM
N#CCc1ncc(-c2ccc(C(F)(F)F)cc2)c(NC2CCCCCC2)n1 : > 10 µM
Cc1nc2ccc(S(=O)(=O)O)cc2c(=O)n1-c1ccc(C(=O)NN2C(=O)C(Cl)C2c2ccccc2O)cc1 (stereo not given) : > 100 µM
COc1ccc(-c2ccc(-c3ccc(-c4ccc(C(=N)N)cc4)s3)s2)cc1OC : 40.6 µM
CC(=O)OC(OC(C)=O)n1cc(C=O)c2ccccc21 : > 100 µM

Specify reported TGI for the molecule shown: CN(C)CCSC(=Nc1ccccc1)N1CCCCC1
28 µM

Specify reported TGI for the molecule shown: CN(C)CCNC(=O)c1cccc2nc3c(nc12)-c1ccccc1C3=O
37.3 µM

Specify reported TGI for the molecule shown: COc1cc(/C=C2\CN(C)C/C(=C\c3cc(CN4CCCCC4)c(O)c(OC)c3)C2=O)cc(CN2CCCCC2)c1O
24.5 µM

Specify reported TGI for the molecule shown: O=C1C(=O)N(c2ccc(Cl)cc2Cl)C(=O)C(=O)C1c1nc2ccccc2o1
> 100 µM

====

Listed here are compounds together with their documented TGI.
- System: 786-0 renal
- assay_method_text: NCI tumour cell line growth inhibition, 48 h
Where a SMILES comes first, the peptide text is derived from it. The star is where a group is joined. Boc = CC(C)(C)OC(=O)*; OBn = c1ccc(CO*)cc1

Solved cases (8 shown):
CC(NC(=O)C(NC(=O)OC(C)(C)C)C(C)C)C(=O)N1CCCC1C(=O)NCC(=O)NC(C(=O)NCC(=O)OCc1ccccc1)C(C)C (centres undefined) (Boc-VAPGVG-OBn; configuration not given here) : > 100 µM
COc1ccc2c(c1)n([O-])c(C#N)c(N1CCN(c3ccc([N+](=O)[O-])cc3)CC1)[n+]2=O : > 100 µM
C=C(C)C(=O)[C@@]12C(=O)[C@@H](C)CC[C@H]1[C@H](C)C[C@@H]2C=C(C)C : 42.4 µM
Cc1ccc(-c2cc(C3=CC(=O)C=CC3=O)n(-c3ccc(S(N)(=O)=O)cc3)n2)cc1 : 58.8 µM
C=CCC(N[C@H](CO)c1ccccc1)c1cn(C(=O)OCC)c2ccccc12 (some centres undefined) : 28.9 µM
O=C1CN(C(=O)c2ccccc2)Cc2[nH]c3ccccc3c21 : > 100 µM
CCN(c1ccc(Br)cc1)c1c(Br)c(=O)nc2ccccn12 : > 100 µM
NS(=O)(=O)c1cccc(N=Cc2c(O)[nH]c3ccccc23)c1 : > 25 µM

Turning now to a further record.
Specify reported TGI for the compound shown: O=S1(=O)c2ccccc2C(=NO)c2ccccc21
> 100 µM

====

- Test system: DMS 273 small cell lung
- assay_method_text: NCI tumour cell line growth inhibition, 48 h
Listed here are compounds together with their documented TGI.

Solved cases (5 shown):
NCCNc1cccc2ccccc12 : > 100 µM
O=C1c2c(n(Cc3ccccc3)c(=O)n2Cc2ccccc2)C(=O)N1Cc1ccccc1 : > 100 µM
CCOC(=O)C(=Cc1ccc(C(=O)OC)cc1)C(=O)OCC : 3.9 µM
O=C(CC(=O)N1N=C(N2c3ccccc3Sc3ccccc32)CC1c1ccccc1)Nc1ccc(Cl)cc1 (configuration not stated) : > 100 µM
Cc1cccc(NC(=O)C(=O)C(C(=O)c2ccccc2F)C2OC(=O)c3ccccc32)c1Cl (configuration not stated) : > 100 µM

Specify reported TGI for the compound shown: CC(=O)OC1(C)C(=O)OC1(C)C(C)=O (configuration not stated)
> 100 µM

Specify reported TGI for the compound shown: Cc1cc(S(=O)(=O)O)c(NC(=O)C(=O)C2C=CCS2(=O)=O)cc1Cl (configuration not stated)
> 100 µM

Specify reported TGI for the compound shown: CN(C)CCSC(=Nc1ccccc1)N1CCCCC1
31.1 µM

Specify reported TGI for the compound shown: C/C(=N\NC(N)=S)C(CN(CC(C)C)CC(C)C)C(=O)Nc1ccc(C)cc1C (configuration not stated)
> 100 µM

Specify reported TGI for the compound shown: COc1cc(/C=C2\CCC(CN(C)C)C2=O)ccc1OC(=O)c1ccccc1 (configuration not stated)
27.4 µM

Specify reported TGI for the compound shown: CCSC1=C(C)N(C=NC(C)(C)C)CC1
> 100 µM

Specify reported TGI for the compound shown: CCCCOP1(=O)C=C(C)C(=C(Cl)Cl)C(C)=C1 (configuration not stated)
16.6 µM

====

Listed here are compounds together with their documented TGI.
- Test system: 786-0 renal
- assay_method_text: NCI tumour cell line growth inhibition, 48 h

Solved cases (3 shown):
O=C(Cc1cccc(OC(F)(F)F)c1)Nc1ccc(CCCCc2nnc(NC(=O)Cc3ccccn3)s2)nn1 : 27.5 µM
COC(=O)/C=C/c1cc(O)c2c(c1)[C@H](C(=O)OC)[C@@H](c1ccc(O)c(O)c1)O2 : > 100 µM
COc1ccc(-c2ccc(-c3ccc(-c4ccc(C(=N)N)cc4)s3)s2)cc1OC : 49.7 µM

Would you please give the reported TGI of COC(=O)/C=C(/C(=O)OC)c1c(C)c(C)c2c(C)cc(C)cc(C)c1-2 with 786-0 renal?
> 100 µM

Would you please give the reported TGI of NC1=NC(c2ccc(Cl)cc2)C2=C(N1)/C(=C/c1ccc(Cl)cc1)CCC2 (stereo not drawn) with 786-0 renal?
29.7 µM

====

- Test system: HCT-116 colon
- assay_method_text: NCI tumour cell line growth inhibition, 48 h
metric: TGI (µM)
Give just the numeric value; µM need not be written.

Solved cases (4 shown):
NC1=NC(c2ccc(Cl)cc2)C2=C(N1)/C(=C/c1ccc(Cl)cc1)CCC2 (centres undefined) : 3.22
O=C1C=C(Br)c2c(Br)sc(Br)c21 : 30.4
COC(=O)[C@]12CC[C@@H](C)[C@H](C)[C@@H]1C1=CC[C@@H]3[C@@]4(C)C=C(O)C(=O)[C@@]5(C)COC(=C54)C[C@@]3(C)[C@]1(C)CC2 : 22.9
CCCCCCCCCCCCSC(=N)N : 14.9

Specify reported TGI for the molecule shown: COc1ccc2c(c1)N=C1CSC(c3ccccc3Cl)N1C2 (centres undefined)
18.8

Specify reported TGI for the molecule shown: COc1cc(/C=C2\CCC(CN(C)C)C2=O)ccc1OC(=O)c1ccccc1 (centres undefined)
22.1

Specify reported TGI for the molecule shown: C=C(CC[C@@H](C(=O)O)[C@H]1[C@H](O)C[C@@]2(C)C3=CC[C@@H](C(=C)C)[C@](C)(CCC(=O)O)C3=CC[C@]12C)C(C)C
30.7

Specify reported TGI for the molecule shown: O=C(CCl)N1c2ccccc2Sc2ccc3ccccc3c21
2.06

====

- System: MDA-MB-231 breast
- assay_method_text: NCI tumour cell line growth inhibition, 48 h
*1 amine or outer side, *2 acyl side, *3 side chain or, on linkers, in order; H or OH if unused. Where a SMILES comes first, the peptide text is derived from it. Bridges are numbered along the chain shown (N, C = ends). Roman numbers before positions name the chains, in order. [ ]: non-standard residue; d: D form. Actinocin(9to1) = Cc1c2oc3c(C)ccc(C(=O)[*:1])c3nc-2c(C(=O)[*:2])c(N)c1=O; NMeV = CN[CH](C(=O)O)C(C)C; Sar = CNCC(=O)O
Listed here are molecules together with their documented TGI.

Would you please give the reported TGI of c1ccc(-c2nc(-c3ccccc3)c(-c3ccccc3)[nH]2)cc1 with MDA-MB-231 breast?
> 100 µM

Would you please give the reported TGI of Cc1c2oc3c(C)ccc(C(=O)NC4C(=O)NC(C(C)O)C(=O)N5CCCC5C(=O)N(C)CC(=O)N(C)C(C(C)C)C(=O)OC4C)c3nc-2c(C(=O)NC2C(=O)NC(C(C)O)C(=O)N3CCCC3C(=O)N(C)CC(=O)N(C)C(C(C)C)C(=O)OC2C)c(N)c1=O (configuration not stated) (I: TTP[Sar][NMeV] / II: TTP[Sar][NMeV]; ester I:1-I:C, II:1-II:C; linker I:N-II:N via Actinocin(9to1); configuration not given here) with MDA-MB-231 breast?
> 100 µM

Would you please give the reported TGI of [N-]=[N+]=CC(=O)OCC1SCCCS1 with MDA-MB-231 breast?
> 100 µM

Would you please give the reported TGI of COc1cc(CC2c3cc(OC)c(OC)cc3CCN2C)c(Oc2cc3c(cc2OC)-c2c(O)c(OC)cc4c2C(C3)N(C)CC4)cc1OC (configuration not stated) with MDA-MB-231 breast?
37.7 µM

Would you please give the reported TGI of COc1ccccc1/C=N\N=C(N/N=C/c1ccccc1OC)N/N=C/c1ccccc1OC with MDA-MB-231 breast?
9.11 µM
